pKi: −log10 of the molar value. Counter-ions that a name gives are not always drawn.
// endpoint pKi / system purified human Factor XIa (Homo sapiens (Human), UniProt P03951)

compound	target.system	pKi
COC(=O)c1ccc2c(c1)-c1cccc(c1)[C@@H](N1CC=C(c3c(F)ccc(Cl)c3F)CC1=O)CCC[C@@H](C)C(=O)N2 [Example 174]	purified human Factor XIa (Homo sapiens (Human), UniProt P03951)	< 6.20
COC(=O)c1ccc2c(c1)-c1cccc(c1)[C@@H](N1CC=C(c3c(Br)ccc(Cl)c3F)CC1=O)CCC[C@@H](C)C(=O)N2 [Example 176]	purified human Factor XIa (Homo sapiens (Human), UniProt P03951)	< 6.20

Next compound, please.
Exercise: Give purified human Factor XIa (Homo sapiens (Human), UniProt P03951) pKi for C[C@@H]1CCC[C@H](N2CCC(c3c(F)ccc(Cl)c3F)=CC2=O)c2cc(ccn2)-c2ccncc2NC1=O [Example 72, TFA Salt]
Key: 8.06
